biological target: DPP8 (Homo sapiens (Human), UniProt Q6V1X1); assay: DPP8 enzyme inhibition, IC50 measurement (Ala-Pro-pNA release); assay type: biochemical; conditions: Table 2; mean ± SD (n = 3); read-out: IC50 DPP8
Sequence (Q6V1X1 whole entry): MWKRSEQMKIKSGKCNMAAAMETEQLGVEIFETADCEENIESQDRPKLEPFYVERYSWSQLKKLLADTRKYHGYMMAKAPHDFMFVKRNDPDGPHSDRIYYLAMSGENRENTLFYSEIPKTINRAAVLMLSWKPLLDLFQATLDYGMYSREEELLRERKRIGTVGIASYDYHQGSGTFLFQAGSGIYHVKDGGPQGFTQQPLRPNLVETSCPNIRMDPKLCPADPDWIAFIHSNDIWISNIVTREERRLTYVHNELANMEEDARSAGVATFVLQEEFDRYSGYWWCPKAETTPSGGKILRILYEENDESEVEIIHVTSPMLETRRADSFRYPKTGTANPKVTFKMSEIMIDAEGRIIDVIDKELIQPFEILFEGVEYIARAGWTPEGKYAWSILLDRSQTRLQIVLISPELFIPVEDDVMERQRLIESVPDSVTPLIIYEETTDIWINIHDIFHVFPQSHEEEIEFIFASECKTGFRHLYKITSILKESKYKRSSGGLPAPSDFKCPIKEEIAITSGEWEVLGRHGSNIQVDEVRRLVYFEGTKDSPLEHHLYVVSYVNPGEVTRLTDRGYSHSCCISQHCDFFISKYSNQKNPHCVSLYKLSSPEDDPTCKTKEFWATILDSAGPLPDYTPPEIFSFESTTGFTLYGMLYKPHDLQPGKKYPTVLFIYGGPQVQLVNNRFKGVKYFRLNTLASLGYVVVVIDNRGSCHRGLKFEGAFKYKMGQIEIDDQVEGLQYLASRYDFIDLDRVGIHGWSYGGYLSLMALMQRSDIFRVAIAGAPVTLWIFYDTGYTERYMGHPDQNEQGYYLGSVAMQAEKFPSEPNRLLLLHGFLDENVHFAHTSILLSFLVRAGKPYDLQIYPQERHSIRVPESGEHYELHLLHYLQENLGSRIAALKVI
MEASURE NAME: pIC50
Note on pIC50: it is the negative log10 of concentration, concentration in mol/L.

Some solved cases for reference:
>  <LINE NOTATION>
O=C(CNC12CC3CC(CC(O)(C3)C1)C2)N1Cc2ccccc2C1

>  <MEASURE NAME>
pIC50

>  <VALUE MEASURED>
4.75

$$$$
>  <LINE NOTATION>
O=C(CNC12CC3CC(C1)CC(OCc1ccccc1)(C3)C2)N1Cc2ccccc2C1

>  <MEASURE NAME>
pIC50

>  <VALUE MEASURED>
5.16

$$$$
>  <LINE NOTATION>
CCCCCCCCOC12CC3CC(CC(NCC(=O)N4Cc5ccccc5C4)(C3)C1)C2

>  <MEASURE NAME>
pIC50

>  <VALUE MEASURED>
5.48

$$$$
>  <LINE NOTATION>
CCCCOC12CC3CC(CC(NCC(=O)N4Cc5ccccc5C4)(C3)C1)C2

>  <MEASURE NAME>
pIC50

>  <VALUE MEASURED>
5.51

$$$$
>  <LINE NOTATION>
CC(C)OC12CC3CC(CC(NCC(=O)N4Cc5ccccc5C4)(C3)C1)C2

>  <MEASURE NAME>
pIC50

>  <VALUE MEASURED>
5.40

$$$$

# ---- query compound ----
Short answer on DPP8 (Homo sapiens (Human), UniProt Q6V1X1) for `O=C(CNC12CC3CC(C1)CC(OCc1ccc(F)cc1F)(C3)C2)N1Cc2ccccc2C1` , pIC50: 5.81

====

Entries and their measured SI DPP9/4 follow.
target: DPP9 (Homo sapiens (Human)); assay: DPP9 enzyme inhibition, IC50 measurement (Ala-Pro-pNA release); assay type: biochemical; conditions: Table 2; selectivity index DPP9/4

Some solved cases for reference:
>  <LINE NOTATION>
CC(C)OC12CC3CC(CC(NCC(=O)N4Cc5ccccc5C4)(C3)C1)C2

>  <TARGET OF ASSAY>
DPP9 (Homo sapiens (Human))

>  <SI DPP9/4>
>16.4

$$$$
>  <LINE NOTATION>
O=C(CNC12CC3CC(CC(O)(C3)C1)C2)N1Cc2ccccc2C1

>  <TARGET OF ASSAY>
DPP9 (Homo sapiens (Human))

>  <SI DPP9/4>
>2.4

$$$$
>  <LINE NOTATION>
O=C(CNC12CC3CC(C1)CC(OCc1ccccc1)(C3)C2)N1Cc2ccccc2C1

>  <TARGET OF ASSAY>
DPP9 (Homo sapiens (Human))

>  <SI DPP9/4>
>8.5

$$$$
>  <LINE NOTATION>
O=C(CNC12CC3CC(C1)CC(OCc1ccc(F)cc1F)(C3)C2)N1Cc2ccccc2C1

>  <TARGET OF ASSAY>
DPP9 (Homo sapiens (Human))

>  <SI DPP9/4>
>26.4

$$$$
>  <LINE NOTATION>
CCCCCCCCOC12CC3CC(CC(NCC(=O)N4Cc5ccccc5C4)(C3)C1)C2

>  <TARGET OF ASSAY>
DPP9 (Homo sapiens (Human))

>  <SI DPP9/4>
>21

$$$$

Entry under test: `CCCCOC12CC3CC(CC(NCC(=O)N4Cc5ccccc5C4)(C3)C1)C2` . Its SI DPP9/4 was >20.4

====

biological target: DPP9 (Homo sapiens (Human), UniProt Q86TI2); test: DPP9 enzyme inhibition, IC50 measurement (Ala-Pro-pNA release); assay type: biochemical; settings: Table 1; selectivity index, DPP8 IC50 over DPP9 IC50
Sequence (Q86TI2 whole entry): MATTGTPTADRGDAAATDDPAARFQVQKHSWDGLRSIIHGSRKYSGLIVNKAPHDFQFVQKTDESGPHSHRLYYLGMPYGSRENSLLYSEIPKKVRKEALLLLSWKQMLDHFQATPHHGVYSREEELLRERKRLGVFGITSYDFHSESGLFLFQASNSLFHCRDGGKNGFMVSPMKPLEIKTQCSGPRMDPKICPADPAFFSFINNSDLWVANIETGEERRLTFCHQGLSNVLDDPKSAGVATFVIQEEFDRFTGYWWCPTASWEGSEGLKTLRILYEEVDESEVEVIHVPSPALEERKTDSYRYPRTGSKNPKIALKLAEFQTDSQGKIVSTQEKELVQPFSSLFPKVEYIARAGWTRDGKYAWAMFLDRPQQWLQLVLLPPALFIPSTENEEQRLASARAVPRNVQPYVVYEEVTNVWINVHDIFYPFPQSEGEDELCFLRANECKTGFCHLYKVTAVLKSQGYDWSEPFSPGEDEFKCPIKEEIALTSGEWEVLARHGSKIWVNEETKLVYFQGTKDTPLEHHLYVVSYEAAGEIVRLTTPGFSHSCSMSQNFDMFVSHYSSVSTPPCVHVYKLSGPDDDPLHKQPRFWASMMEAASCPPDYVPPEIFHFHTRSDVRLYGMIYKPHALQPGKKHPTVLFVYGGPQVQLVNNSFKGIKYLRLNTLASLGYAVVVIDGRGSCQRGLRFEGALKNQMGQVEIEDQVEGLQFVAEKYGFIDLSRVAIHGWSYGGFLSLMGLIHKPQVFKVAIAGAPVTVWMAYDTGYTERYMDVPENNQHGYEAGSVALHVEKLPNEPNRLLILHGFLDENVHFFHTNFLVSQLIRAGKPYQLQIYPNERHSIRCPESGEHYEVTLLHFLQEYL
MEASURE NAME: SI DPP9/8
Simply state the number, no unit and no words.

Some solved cases for reference:
>  <LINE NOTATION>
N#C[C@@H]1[C@@H]2C[C@@H]2CN1C(=O)CNC12CC3CC(C1)CC(OCc1ccccc1)(C3)C2

>  <SI DPP9/8>
8.7

$$$$
>  <LINE NOTATION>
C=C1C[C@@H](C#N)N(C(=O)CNC23CC4CC(C2)CC(OCCCC)(C4)C3)C1

>  <SI DPP9/8>
2.5

$$$$
>  <LINE NOTATION>
CCCCOC12CC3CC(CC(NCC(=O)N4C[C@@H](N=[N+]=[N-])C[C@H]4C#N)(C3)C1)C2

>  <SI DPP9/8>
7.8

$$$$

# ---- query compound ----
Short answer on DPP9 (Homo sapiens (Human), UniProt Q86TI2) for `CCCCOC12CC3CC(CC(NCC(=O)N4CCC[C@H]4C#N)(C3)C1)C2` , SI DPP9/8: 8.5

====

Entries and their measured SI DPP9/8 follow.
target: DPP9 (Homo sapiens (Human), UniProt Q86TI2); assay: DPP9 enzyme inhibition, IC50 measurement (Ala-Pro-pNA release); type: biochemical; settings: Table 1; selectivity index, DPP8 IC50 over DPP9 IC50
Simply state the number, no unit and no words.

>  <LINE NOTATION>
N#C[C@@H]1CCCN1C(=O)CNC12CC3CC(C1)CC(OCc1ccc(F)cc1F)(C3)C2

>  <SI DPP9/8>
10

$$$$
>  <LINE NOTATION>
N#C[C@@H]1CCCN1C(=O)CNC12CC3CC(C1)CC(OCc1ccccc1)(C3)C2

>  <SI DPP9/8>
9.9

$$$$

# ---- query compound ----
Short answer on DPP9 (Homo sapiens (Human), UniProt Q86TI2) for `C=C1C[C@@H](C#N)N(C(=O)CNC23CC4CC(C2)CC(OCc2ccc(F)cc2F)(C4)C3)C1` , SI DPP9/8: 2.8

====

target: UniProt Q86TI2; test: DPP9 enzyme inhibition, IC50 measurement (Ala-Pro-pNA release); type: biochemical; conditions: Table 4; standard method; read-out: IC50 DPP9
Entries and their measured IC50 follow.
Provide the reading as a plain figure in nM.

Some solved cases for reference:
>  <COMPOUND>
Cc1ccc2c(c1)CN(C(=O)CNC13CC4CC(C1)CC(NC(=O)OC(C)(C)C)(C4)C3)C2 [Compound 84]

>  <VALUE MEASURED>
208

$$$$
>  <COMPOUND>
Cc1ncsc1-c1ccc(CNC(=O)[C@@H]2C[C@@H](O)CN2C(=O)[C@@H](NC(=O)CCOCCOCCOCCC(=O)NC23CC4CC(CC(NCC(=O)N5Cc6ccc(F)cc6C5)(C4)C2)C3)C(C)(C)C)cc1 [Compound 124]

>  <VALUE MEASURED>
20

$$$$
>  <COMPOUND>
CC(C)(C)NC(=O)NC12CC3CC(CC(NCC(=O)N4Cc5cc(F)c(F)cc5C4)(C3)C1)C2.Cl [Compound 85, hydrochloride]

>  <VALUE MEASURED>
32

$$$$
>  <COMPOUND>
Cl.O=C(NC12CC3CC(CC(NCC(=O)N4Cc5ccc(F)cc5C4)(C3)C1)C2)c1cccnc1 [Compound 98, hydrochloride]

>  <VALUE MEASURED>
88

$$$$
>  <COMPOUND>
Cl.O=C(NC12CC3CC(CC(NCC(=O)N4Cc5ccc(F)cc5C4)(C3)C1)C2)c1ccc(-c2ccncc2)cc1 [Compound 91, hydrochloride]

>  <VALUE MEASURED>
8

$$$$
>  <COMPOUND>
Cl.O=C(NC12CC3CC(CC(NCC(=O)N4Cc5ccc(F)cc5C4)(C3)C1)C2)c1ccc(-c2cccnc2)cc1 [Compound 88, hydrochloride]

>  <VALUE MEASURED>
2

$$$$

Entry under test: CC(C)(C)CC(=O)NC12CC3CC(CC(NCC(=O)N4Cc5cc(F)c(F)cc5C4)(C3)C1)C2 [Compound 86] . Its IC50 was 58

Entry under test: Cl.O=C(NC12CC3CC(CC(NCC(=O)N4Cc5ccc(F)cc5C4)(C3)C1)C2)c1ccc(-c2ccccn2)cc1 [Compound 90, hydrochloride] . Its IC50 was 3

Entry under test: Cl.O=C(NC12CC3CC(CC(NCC(=O)N4Cc5ccc(F)cc5C4)(C3)C1)C2)c1ccc(F)cc1 [Compound 95, hydrochloride] . Its IC50 was 42

====

target: UniProt Q86TI2; experiment: DPP9 enzyme inhibition, IC50 measurement (Ala-Pro-pNA release); format: biochemical; conditions: Table 1; selectivity index DPP9/4
Entries and their measured SI DPP9/4 follow.
Simply state the number, no unit and no words.

>  <LINE NOTATION>
C=C1C[C@@H](C#N)N(C(=O)CNC23CC4CC(C2)CC(OCCCC)(C4)C3)C1

>  <SI DPP9/4>
1.5

$$$$

Entry under test: `C=C1C[C@@H](C#N)N(C(=O)CNC23CC4CC(CC(O)(C4)C2)C3)C1` . Its SI DPP9/4 was 0.9

Entry under test: `C=C1C[C@@H](C#N)N(C(=O)CNC23CC4CC(C2)CC(OCc2ccccc2)(C4)C3)C1` . Its SI DPP9/4 was 2.3

Data origin, for the record: patent US20250353833A1
